# target desc: SHP2 (Homo sapiens (Human))
# Sequence (Q06124 whole entry): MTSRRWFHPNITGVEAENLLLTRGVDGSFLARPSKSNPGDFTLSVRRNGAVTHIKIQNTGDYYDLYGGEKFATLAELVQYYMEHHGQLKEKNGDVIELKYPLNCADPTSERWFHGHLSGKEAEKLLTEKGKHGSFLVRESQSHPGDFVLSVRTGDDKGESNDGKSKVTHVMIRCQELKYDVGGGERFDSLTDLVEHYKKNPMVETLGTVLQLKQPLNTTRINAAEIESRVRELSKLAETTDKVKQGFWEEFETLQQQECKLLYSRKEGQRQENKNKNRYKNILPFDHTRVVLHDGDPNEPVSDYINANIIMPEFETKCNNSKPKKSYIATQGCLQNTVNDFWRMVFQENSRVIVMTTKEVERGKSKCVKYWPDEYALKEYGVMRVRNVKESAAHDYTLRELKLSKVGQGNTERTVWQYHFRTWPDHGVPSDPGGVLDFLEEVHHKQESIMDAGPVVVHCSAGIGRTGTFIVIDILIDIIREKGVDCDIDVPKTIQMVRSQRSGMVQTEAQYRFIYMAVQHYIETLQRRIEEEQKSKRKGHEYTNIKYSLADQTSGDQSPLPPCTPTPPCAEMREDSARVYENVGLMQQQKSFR
# assay text: SHP2 allosteric inhibition assay (DiFMUP prompt fluorescence, activating peptide)
# Assay type: biochemical
# experimental conditions: 0.2 nM SHP2, 0.5 μM activating peptide, DiFMUP substrate; read-out: SHP2 Allosteric IC50
pIC50: −log10 of the molar value.
pIC50 by entry:

Example results:
> print(dat)
                              sample.smiles     obs.value
1  C[C@@H]1OCC2(CCN(c3ncc(-c4ccc5nccnc5c4)nc3CO)CC2)[C@@H]1N        < 6.30
2  COc1nccc(Sc2cnc(N3CCC4(CC3)CO[C@@H](C)[C@H]4N)c(CO)n2)c1Cl        ≥ 7.30
3  N[C@@H]1CCCC12CCN(c1ncc(-c3cccc(Cl)c3Cl)nc1C(F)F)CC2  6.30 to 7.30
4  N[C@@H]1CCCC12CCN(c1ncc(-c3ccnc(Cl)c3Cl)nc1CO)CC2  6.30 to 7.30
5  N[C@@H]1CCCC12CCN(c1ncc(-c3cccc(Cl)c3Cl)nc1CO)CC2  6.30 to 7.30

Sample `COc1ccc(Cl)c(Cl)c1-c1cnc(N2CCC3(CC2)CO[C@@H](C)[C@H]3N)c(CO)n1` , system: SHP2 (Homo sapiens (Human)). Its pIC50 is < 6.30

Observed pIC50, SHP2 (Homo sapiens (Human)), `C[C@@H]1OCC2(CCN(c3ncc(Sc4ccnc(NC5CCOCC5)c4Cl)nc3CO)CC2)[C@@H]1N` : ≥ 7.30

`C[C@@H]1OCC2(CCN(c3ncc(Sc4ccnc(N)c4Cl)nc3CO)CC2)[C@@H]1N` tested on SHP2 (Homo sapiens (Human)) gave pIC50: ≥ 7.30

Item: `C[C@@H]1OCC2(CCN(c3ncc(-c4c(Cl)c(Cl)cc5c4OCO5)nc3CO)CC2)[C@@H]1N` | System: SHP2 (Homo sapiens (Human)) | pIC50: 6.30 to 7.30

Per the reported SHP2 (Homo sapiens (Human)) data, `C[C@@H]1OCC2(CCN(c3ncc(-c4ccc5c(c4Cl)OCCC5)nc3CO)CC2)[C@@H]1N` has pIC50 of 6.30 to 7.30

Observed pIC50, SHP2 (Homo sapiens (Human)), `C[C@@H]1OCC2(CCN(c3ncc(-c4cccc(Cl)c4Cl)nc3CO)CC2)[C@@H]1N` : ≥ 7.30

Lab entry: SHP2 (Homo sapiens (Human)) assay, compound `C[C@@H]1OCC2(CCN(c3ncc(Sc4cccc(C(=O)N(C)C)c4Cl)nc3CO)CC2)[C@@H]1N` , pIC50 = ≥ 7.30
